Biological target: SSTR5 (Homo sapiens (Human), UniProt P35346)
Sequence (P35346 whole entry): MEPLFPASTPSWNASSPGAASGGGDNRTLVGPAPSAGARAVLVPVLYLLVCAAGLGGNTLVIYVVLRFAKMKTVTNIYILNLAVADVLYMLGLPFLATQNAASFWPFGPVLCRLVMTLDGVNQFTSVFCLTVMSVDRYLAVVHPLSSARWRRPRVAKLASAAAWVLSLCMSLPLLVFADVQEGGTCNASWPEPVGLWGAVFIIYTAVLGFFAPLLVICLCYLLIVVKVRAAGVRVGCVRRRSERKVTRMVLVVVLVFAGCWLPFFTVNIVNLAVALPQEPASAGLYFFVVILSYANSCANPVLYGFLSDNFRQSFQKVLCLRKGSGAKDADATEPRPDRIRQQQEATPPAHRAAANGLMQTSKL
Experiment: SSTR5 binding assay
Conditions: CHO-K1 membranes expressing cloned human SSTR5
Structures can show the parent of a compound that is named as a salt.
For each entry below, report its IC50 value.
Just so you know, I need the unit written after the number.

For O=C(O)c1ccc(N2CC3(CCN(Cc4cn(CC(F)(F)F)nc4-c4ccc(F)c(F)c4F)CC3)OC2=O)cc1 [Example 1-41, TFA salt] , write its IC50. 10.4 nM

For CCOc1cc(CN2CCC3(CC2)CN(c2ccc(C(=O)O)c(Cl)c2)C(=O)O3)cc(OCC)c1-c1ccc(F)cc1 [Example 3-9, TFA salt] , write its IC50. 1.21 nM

For CCOc1cc(CN2CCC3(CC2)CN(c2ccc(C(=O)O)c(C)c2)C(=O)O3)c(-c2ccc(F)c(F)c2F)cc1C [Example 4-12, TFA salt] , write its IC50. 0.188 nM

For CC(C)(C)c1nc(-c2cc(F)c(F)cc2F)c(CN2CCC3(CC2)CN(c2ccc(C(=O)O)cc2)C(=O)O3)s1 [Example 6-35, TFA salt] , write its IC50. 1.74 nM

For COc1ccc2c(CN3CCC4(CC3)CN(c3ccc(C(=O)O)cc3)C(=O)O4)cn(C(C)C)c2c1 [Example 6-16, TFA salt] , write its IC50. 0.851 nM

For COc1ccc(-c2nc(C3CCCCC3)sc2CN2CCC3(CC2)CN(c2ccc(C(=O)O)cc2)C(=O)O3)cc1 [Example 6-28, TFA salt] , write its IC50. 1.34 nM

For O=C(O)c1ccc(N2CC3(CCN(Cc4cn(-c5ccccc5)nc4-c4ccc(F)c(Cl)c4)CC3)OC2=O)cc1 [Example 1-34, TFA salt] , write its IC50. 4.67 nM

For CC(C)(C)n1cc(CN2CC3(C2)CN(c2ccc(C(=O)O)cc2)C(=O)O3)c(-c2ccc(F)c(F)c2F)n1 [Example 2-9, TFA salt] , write its IC50. 14.9 nM

For CCOc1ccc(-c2nccs2)c(CN2CCC3(CC2)CN(c2ccc(C(=O)O)cc2)C(=O)O3)c1 [Example 4-27, TFA salt] , write its IC50. 1.5 nM

For COc1ccc2c(CN3CCC4(CC3)CN(c3ccc(C(=O)O)cc3)C(=O)O4)nn(CC(C)(C)C)c2c1 [Example 6-11, TFA salt] , write its IC50. 410 nM

For CCOc1cc(CN2CCC3(CC2)CN(c2ccc(C(=O)O)cc2)C(=O)O3)cc2c(OC)cccc12 [Example 5-2, TFA salt] , write its IC50. 0.704 nM

For CC(C)(C)n1cc(CN2CCC3(CC2)CN(c2ccc(C(=O)O)cn2)C(=O)O3)c(-c2ccc(F)c(F)c2F)n1 [Example 1-43, TFA salt] , write its IC50. 2.88 nM

For COc1ccc(-c2nn(C(C)(C)C)cc2CN2CCC3(CC2)CN(c2ccc(C(=O)O)cc2)C(=O)O3)cc1 [Example 1-10, TFA salt] , write its IC50. 2.86 nM

For COc1ccc2c(CN3CCC4(CC3)CN(c3ccc(C(=O)O)cc3)C(=O)O4)nn(CC(=O)C(C)(C)C)c2c1 [Example 6-15, TFA salt] , write its IC50. 1200 nM

For O=C(O)c1ccc(N2CC3(CCN(Cc4nn(Cc5ccc(Cl)cc5)cc4-c4cc(F)c(F)cc4F)CC3)OC2=O)cc1 [Example 2-4, TFA salt] , write its IC50. 112 nM

For COc1ccc2c(CN3CCC4(CC3)CN(c3ccc(C(=O)O)cc3)C(=O)O4)nn(-c3ccccc3)c2c1 [Example 6-13, TFA salt] , write its IC50. 185 nM

For CCCCn1nc(CN2CCC3(CC2)CN(c2ccc(C(=O)O)cc2)C(=O)O3)c2cc(F)ccc21 [Example 6-4, TFA salt] , write its IC50. 98.7 nM

For CCOc1cc(CN2CCC3(CC2)CN(c2ccc(C(=O)O)cc2)C(=O)O3)c(-c2ccc(F)nc2)cc1C [Example 4-14, TFA salt] , write its IC50. 0.407 nM

For CCOc1cc(CN2CCC3(CC2)CN(c2ccc(C(=O)O)nc2)C(=O)O3)cc(OCC)c1-c1ccc(F)cc1 [Example 3-4, TFA salt] , write its IC50. 1.4 nM

For COc1ccc2c(c1)c(CN1CCC3(CC1)CN(c1ccc(C(=O)O)cc1)C(=O)O3)cn2C(C)C [Example 6-26, TFA salt] , write its IC50. 1.45 nM

For COc1ccc(-c2nn(-c3ccccc3)cc2CN2CCCC3(CC2)CN(c2ccc(C(=O)O)cc2)C(=O)O3)cc1 (centres unmarked) [Example 2-15, TFA salt] , write its IC50. 58.7 nM

For O=C(O)c1ccc(N2CC3(CCN(Cc4cn(C5CCCCC5)nc4-c4cc(F)c(F)cc4F)CC3)OC2=O)cc1 [Example 1-33, TFA salt] , write its IC50. 1.29 nM

For Cn1cc(-c2ccc(F)c(F)c2F)c(CN2CCC3(CC2)CN(c2ccc(C(=O)O)cc2)C(=O)O3)n1 [Example 2-1, TFA salt] , write its IC50. 2950 nM

For CCOc1cc(CN2CCC3(CC2)CN(c2cc(C(=O)O)ccn2)C(=O)O3)cc(OCC)c1-c1ccc(F)cc1 [Example 3-17, TFA salt] , write its IC50. 2.21 nM

For COc1cccc(-c2nn(-c3ccccc3)cc2CN2CCC3(CC2)CN(c2ccc(C(=O)O)cc2)C(=O)O3)c1 [Example 1-22, TFA salt] , write its IC50. 4.87 nM

For CC(C)(C)n1cc(CN2CCC3(CC2)CN(c2ccc(C(=O)O)cc2)C(=O)O3)c(-c2ccc(F)cc2F)n1 [Example 1-30, TFA salt] , write its IC50. 1.95 nM
